Please go through the items and note down their inhibition at 50 µM.
System: Staphylococcus aureus
protocol.description: Antibacterial activity against methicillin-resistant Staphylococcus aureus assessed as inhibition of bacterial growth at 50 uM by microdilution assay relative to control
Assay type: functional
Lab book: enter the figure in %, no units written.

## Task Entry "COc1cc(/C=C/C(=O)N2CCC(Nc3ccc4c(c3)OCCO4)CC2)ccc1O" has what inhibition at 50 µM?
## Result 3

## Task Entry "O=C(/C=C/c1ccc2c(c1)OCCO2)N1CCC(Nc2ccccc2)CC1" has what inhibition at 50 µM?
## Result 0

## Task Entry "O=C(/C=C/c1ccc2c(c1)OCCCO2)N1CCC(Nc2ccccc2)CC1" has what inhibition at 50 µM?
## Result 0

## Task Entry "O=C(/C=C/c1ccccc1)N1CCC(Nc2ccc(Cl)cc2)CC1" has what inhibition at 50 µM?
## Result 22

## Task Entry "CC(C)c1ccc(NC2CCN(C(=O)/C=C/c3ccc4c(c3)OCCO4)CC2)cc1" has what inhibition at 50 µM?
## Result 26

## Task Entry "CC(C)c1ccc(NC2CCN(C(=O)/C=C/c3ccc4c(c3)OCCCO4)CC2)cc1" has what inhibition at 50 µM?
## Result 0

## Task Entry "CC(C)c1ccc(NC2CCN(C(=O)/C=C/c3ccc4c(c3)OCO4)CC2)cc1" has what inhibition at 50 µM?
## Result 0

## Task Entry "COc1ccc(NC2CCN(C(=O)/C=C/c3ccc4c(c3)OCCCO4)CC2)cc1" has what inhibition at 50 µM?
## Result 0

## Task Entry "COc1cc(/C=C/C(=O)N2CCC(Nc3ccc(C(C)C)cc3)CC2)ccc1O" has what inhibition at 50 µM?
## Result 0

## Task Entry "COc1ccc(NC2CCN(C(=O)/C=C/c3ccccc3)CC2)cc1" has what inhibition at 50 µM?
## Result 15

## Task Entry "O=C(/C=C/c1ccc2c(c1)OCCCO2)N1CCC(Nc2ccc(Cl)cc2)CC1" has what inhibition at 50 µM?
## Result 0

## Task Entry "COc1cc(/C=C/C(=O)N2CCC(NCc3ccccc3)CC2)ccc1O" has what inhibition at 50 µM?
## Result 0

## Task Entry "COc1cc(/C=C/C(=O)N2CCC(Nc3ccc(F)cc3)CC2)ccc1O" has what inhibition at 50 µM?
## Result 0

## Task Entry "CC(C)c1ccc(NC2CCN(C(=O)/C=C/c3ccccc3)CC2)cc1" has what inhibition at 50 µM?
## Result 42

## Task Entry "COc1ccc(NC2CCN(C(=O)/C=C/c3ccc(O)c(OC)c3)CC2)cc1" has what inhibition at 50 µM?
## Result 4

## Task Entry "O=C(/C=C/c1ccc2c(c1)OCO2)N1CCC(Nc2ccc(Cl)cc2)CC1" has what inhibition at 50 µM?
## Result 20

## Task Entry "O=C(/C=C/c1ccc2c(c1)OCCO2)N1CCC(Nc2ccc(Cl)cc2)CC1" has what inhibition at 50 µM?
## Result 24

## Task Entry "COc1cc(/C=C/C(=O)N2CCC(Nc3cccc(F)c3)CC2)ccc1O" has what inhibition at 50 µM?
## Result 0

## Task Entry "COc1cc(/C=C/C(=O)N2CCC(Nc3ccccc3)CC2)ccc1O" has what inhibition at 50 µM?
## Result 8

## Task Entry "COc1cc(/C=C/C(=O)N2CCC(Nc3ccc(Cl)cc3)CC2)ccc1O" has what inhibition at 50 µM?
## Result 0

## Task Entry "COc1ccc(NC2CCN(C(=O)/C=C/c3ccc4c(c3)OCO4)CC2)cc1" has what inhibition at 50 µM?
## Result 0

## Task Entry "O=C(/C=C/c1ccccc1)N1CCC(Nc2ccccc2)CC1" has what inhibition at 50 µM?
## Result 36

## Task Entry "COc1cc(/C=C/C(=O)N2CCC(Nc3ccc(C)cc3)CC2)ccc1O" has what inhibition at 50 µM?
## Result 0

## Task Entry "COc1cc(/C=C/C(=O)N2CCC(Nc3cccc4ccccc34)CC2)ccc1O" has what inhibition at 50 µM?
## Result 0
